# System: MS2 coat protein
# PROTOCOL_TEXT: apparent Kd, MS2 coat protein; higher = weaker binding; RNA-MaP array
# STUDY_CONDITIONS: ligand present: flavin mononucleotide; designed as: OFF switch for flavin mononucleotide
REPORTED_ENDPOINT: apparent Kd

Some sequences with recorded apparent Kd:
# RESIDUE_STRING, REPORTED_ENDPOINT, RESULT_VALUE
rows = [
    ("AAUCAACUUAGAGGAUAUAAGCUUAAAAUAGGGUUAGAAGGCUAUGGUACUAAUGAUCCGUCAACAUGAGGAUCACCCAUGUAG", "apparent Kd", "37.2 nM"),
    ("GUGUGGCGCUCAGGAUAUAGAAGGUCGCUAGUUCUAGAAGGGAGCAACGAGGUACCACAUGAGGAUCACCCAUGUUUGGUUGAC", "apparent Kd", "13.3 nM"),
]

// apparent Kd lookup, key: AUAACUGCAGGAUAUACAGGAACGCCUAGAAGGAUCCUGGAACAUGAGGAUCACCCAUGUAGAAGGGCACGUUU
14.4 nM

What value of apparent Kd has been recorded for this entry: GUCAACACAGUAGGAUAUCCAAUGCGUAAGCUCGGAGAAGGACUUAACUAGCAGUUUGAUCGACAUGAGGAUCACCCAUGUAAU
9.96 nM

====

Catalogue of sequences with associated apparent Kd
# Test system: MS2 coat protein
# PROTOCOL_TEXT: apparent Kd, MS2 coat protein; higher = weaker binding; RNA-MaP array
# STUDY_CONDITIONS: designed as: OFF switch for flavin mononucleotide; no ligand
Numeric answer plus unit only.

The examples below pair each entry with its known result.
# RESIDUE_STRING, RESULT_VALUE
rows = [
    ("ACGGCAUGGAAGAAGGAGUACAUGAGGAUCACCCAUGUAGGGUAGCGCGUCCACAUCCAAUAAGACUAGGAUAUUCUUGCAGAU", "39.8 nM"),
    ("CGACGAUCAGAAGGAUAUUAAAUCGUCAAUCUCGUGACAUGAGGAUCACCCAUGUAGCCCGUGGUUAAGAAGGUCUUGGUUGUG", "92.4 nM"),
]

What measured apparent Kd goes with UGCCAGGCACAGAAGGUAGCGUGUCCUCAAGACAUGAGGAUCACCCAUGUGGAAAGAUUAAGACCUAAGGAUAUGUGUAUCACC ?
143 nM

Given the sequence CCUUUAGAUGUGAGGAUAUGUACUUGACUUUCAUGACAGAAGGCACAUGAGGAUCACCCAUGUAGUGUCAUUGG , what is its reported apparent Kd?
10.4 nM

Which apparent Kd value belongs to CGCCCGUACUCAGGAUAUCGAAGUACGAGCCAAAUUAUGUCGGACAUGAGGAUCACCCAUGUGGGCGAGAAGGGAGAACGUGCG ?
29.4 nM

Recorded apparent Kd of GAACCCAAGGUGAGGAUAUUCGAAGCAACAAAAGGGAAGAAGGCACAUGAGGAUCACCCAUGUAAGAAAGAUAA , please.
8.35 nM

I'd like to know its apparent Kd. The sequence in question is CCCAGGAUUCAAGGAUAUCGCAAUGAACAUGAGGAUCACCCAUGUUUCUACCCCUCAGCGCACGGCGAGAAGGUGACUUUAGCG
12.8 nM

====

# System: MS2 coat protein
# PROTOCOL_TEXT: apparent Kd, MS2 coat protein; higher = weaker binding; RNA-MaP array
# STUDY_CONDITIONS: designed as: OFF switch for theophylline; no ligand
apparent Kd values, listed per item
Kindly provide the numeric value in nM only, without the unit symbol.

A selection of reference data follows.
# RESIDUE_STRING, apparent Kd / nM
records = [
    ("CGCCUACAGGUGUACUAUUGUGGUGAAGAUACCAGAUAGCCCAAUAUCCCUUGGCAGCUUCAGACAUGAGGAUCACCCAUGUAUC", 15.5),
    ("UCAUUGAGAGUCAUCCAGCGUUAAUGGGAUACCAGAGUUCUUUUACUCCCUUGGCAGCCCGGAACAUGAGGAUCACCCAUGUCUG", 34.9),
    ("UGCGACAAGUGAAUACUUUGUUCUAGAGAUACCAGUUCCCGAGUGAACCCUUGGCAGCUCCCAACAUGAGGAUCACCCAUGUAUU", 14.5),
]

Now consider the entry below.
Reported apparent Kd, sequence UAGCGAUCUCGUUAAAGGAUCCCAUUUGAUACCAGAGAACUUUGCCUCCCUUGGCAGCAAGUGACAUGAGGAUCACCCAUGUUGA : ____
16.2
